Attribution: patent US20050232917

The entries below come with measured IC50 values attached.
- ASSAYED TARGET: MAdCAM-IgG1 Fc fusion (human)
- Sequence (chain, as listed by the source): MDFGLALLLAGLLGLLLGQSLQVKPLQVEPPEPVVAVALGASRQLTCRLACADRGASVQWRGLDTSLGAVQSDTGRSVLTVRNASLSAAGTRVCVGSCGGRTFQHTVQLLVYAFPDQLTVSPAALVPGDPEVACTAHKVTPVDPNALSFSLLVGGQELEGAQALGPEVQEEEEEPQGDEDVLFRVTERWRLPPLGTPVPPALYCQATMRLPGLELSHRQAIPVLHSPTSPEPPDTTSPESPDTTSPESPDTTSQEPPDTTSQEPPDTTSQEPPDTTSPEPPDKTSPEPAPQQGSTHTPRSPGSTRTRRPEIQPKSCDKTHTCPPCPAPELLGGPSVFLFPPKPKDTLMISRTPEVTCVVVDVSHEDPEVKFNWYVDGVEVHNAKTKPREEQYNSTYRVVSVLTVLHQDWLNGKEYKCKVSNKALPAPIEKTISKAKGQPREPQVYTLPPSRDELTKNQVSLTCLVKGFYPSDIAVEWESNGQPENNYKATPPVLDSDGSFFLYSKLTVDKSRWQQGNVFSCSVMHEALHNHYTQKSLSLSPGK
- PROTOCOL NOTES: competition, JY cell adhesion
In your response, put the unit directly after the numeric value.

BINDER: 6.14.2 (antibody, V domains shown) VH: EVQLLESGGGLVQPGGSLRLSCAASGLTFNNSAMTWVRQAPGKGLEWVSTTSGSGGTTYYADSVKGRFTISRDSPKNTLYLQMNSLRAEDTAVYYCAARGYSYGTTPYEYWGQGTLVTVSS VL: MDMRVPAQLLGLLLLWLRGARCDIQMTQSPSSLSASVGDRVTITCRASRSISSYLNWYQQKPGKAPKVLIFFVSSLQSGVPSRFSGSGSGTDFTLTISSLQPEDFATYYCQQNYIPPITFGQGTRLEIRR
RESULT: 0.011 mg/L

Noted for 7.16.6 (antibody, V domains shown) VH: QVQLVQSGAEVKKPGASVKVSCKASGYTFTSYGINWVRQAPGQGLEWMGWISVYSGNTNYAQKVQGRVTMTADTSTSTAYMDLRSLRSDDTAVYYCAREGSSSSGDYYYGMDVWGQGTTVTVSS VL: DIVMTQTPLSLSVTPGQPASISCKSSQSLLHTDGTTYLYWYLQKPGQPPQLLIYEVSNRFSGVPDRFSGSGSGTDFTLKISRVEAEDVGIYYCMQNIQLPWTFGQGTKVEIKR : its IC50 reads 0.019 mg/L
